target: YgbP/IspD (Escherichia coli); test: steady-state inhibition kinetics, malachite green phosphate assay coupled to inorganic pyrophosphatase
Sequence (Q46893 2-236): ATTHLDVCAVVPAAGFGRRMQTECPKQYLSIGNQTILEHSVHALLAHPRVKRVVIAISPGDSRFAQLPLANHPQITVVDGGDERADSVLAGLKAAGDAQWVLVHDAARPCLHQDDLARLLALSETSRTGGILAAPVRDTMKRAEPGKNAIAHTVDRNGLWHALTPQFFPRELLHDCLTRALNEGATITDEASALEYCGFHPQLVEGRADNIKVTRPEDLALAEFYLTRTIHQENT
measured_parameter: pKi
Entry type: numeric. Quantity: pKi, the -log10 of concentration in molar units.

Prompt: Tell me pKi reported for `[N-]=[N+]=NC[C@](O)(CO)[C@H](O)COP(=O)(O)O`
Completion: 4.68
